The values you see were collected from ChEMBL document CHEMBL4043283.

assay: Growth inhibition of human FR2 cells after 48 hrs by MTT assay; assay type: cell-based
measurement-name: GI50 at 48 h (µM)
Answer format: numeric, µM implied, no suffix.

Asked: Give the measured GI50 at 48 h for CN1CC[C@H](c2c(O)cc(O)c3c(=O)cc(/C=C/c4c(Cl)cccc4Cl)oc23)[C@H](O)C1
Given back: 19

* * *

test system: Liver; assay: Intrinsic clearance in human liver S9 fraction assessed per mg of protein preincubated for 5 mins followed by NADPH addition measured after 30 mins by LC-MS/MS analysis; assay type: ADME, tissue-based; details: s9, 0.5 h
measurement-name: CLint (µL/min/mg)
The figure you give is taken to be in µL/min/mg; do not add the unit.

Asked: # return recorded CLint for entry CN1CC[C@H](c2c(O)cc(O)c3c(=O)cc(/C=C/c4c(Cl)cccc4Cl)oc23)[C@H](O)C1
Given back: 19
